All figures here come from patent US20170174769A1.

Listing of entries alongside the reported Maximum Inhibition (%) of 10 nM mfFGF21.
- tested_on: M. fascicularis KLB and human FGFR1c co-expressed on HEK293/MfKLB/hFGFR1c/SRE-Luc cells (M. fascicularis; human, UniProt A0A2K5WB58 1-1044)
- Sequence (chain, as listed by the source, chain 1 of 2): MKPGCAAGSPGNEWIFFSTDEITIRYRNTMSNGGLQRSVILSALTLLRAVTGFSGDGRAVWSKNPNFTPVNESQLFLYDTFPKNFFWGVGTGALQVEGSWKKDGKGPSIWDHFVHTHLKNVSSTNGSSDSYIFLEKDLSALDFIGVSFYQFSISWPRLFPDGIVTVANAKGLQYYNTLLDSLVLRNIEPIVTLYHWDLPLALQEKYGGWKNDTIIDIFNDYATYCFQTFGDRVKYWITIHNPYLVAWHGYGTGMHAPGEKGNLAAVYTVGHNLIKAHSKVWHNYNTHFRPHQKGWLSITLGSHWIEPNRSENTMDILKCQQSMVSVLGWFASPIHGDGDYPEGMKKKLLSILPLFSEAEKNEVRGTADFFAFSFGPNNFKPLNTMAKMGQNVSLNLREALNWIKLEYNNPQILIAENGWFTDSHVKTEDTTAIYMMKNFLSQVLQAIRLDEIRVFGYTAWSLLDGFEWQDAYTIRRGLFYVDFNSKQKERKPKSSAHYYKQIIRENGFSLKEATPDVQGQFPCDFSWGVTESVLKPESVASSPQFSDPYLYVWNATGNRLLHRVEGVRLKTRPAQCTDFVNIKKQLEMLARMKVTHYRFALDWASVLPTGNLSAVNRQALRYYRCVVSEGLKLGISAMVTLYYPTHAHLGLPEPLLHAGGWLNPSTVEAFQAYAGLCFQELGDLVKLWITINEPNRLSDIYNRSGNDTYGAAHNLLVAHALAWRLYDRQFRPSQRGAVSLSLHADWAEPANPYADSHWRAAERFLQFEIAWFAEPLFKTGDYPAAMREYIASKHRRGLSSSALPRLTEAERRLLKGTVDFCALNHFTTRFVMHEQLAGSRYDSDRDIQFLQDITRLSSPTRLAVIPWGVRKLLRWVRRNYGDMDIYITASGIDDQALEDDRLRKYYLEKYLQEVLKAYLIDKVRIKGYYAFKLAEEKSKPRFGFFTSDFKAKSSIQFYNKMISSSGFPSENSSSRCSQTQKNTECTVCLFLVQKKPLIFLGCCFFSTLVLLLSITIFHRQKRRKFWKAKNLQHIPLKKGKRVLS
- Sequence (chain, as listed by the source, chain 2 of 2): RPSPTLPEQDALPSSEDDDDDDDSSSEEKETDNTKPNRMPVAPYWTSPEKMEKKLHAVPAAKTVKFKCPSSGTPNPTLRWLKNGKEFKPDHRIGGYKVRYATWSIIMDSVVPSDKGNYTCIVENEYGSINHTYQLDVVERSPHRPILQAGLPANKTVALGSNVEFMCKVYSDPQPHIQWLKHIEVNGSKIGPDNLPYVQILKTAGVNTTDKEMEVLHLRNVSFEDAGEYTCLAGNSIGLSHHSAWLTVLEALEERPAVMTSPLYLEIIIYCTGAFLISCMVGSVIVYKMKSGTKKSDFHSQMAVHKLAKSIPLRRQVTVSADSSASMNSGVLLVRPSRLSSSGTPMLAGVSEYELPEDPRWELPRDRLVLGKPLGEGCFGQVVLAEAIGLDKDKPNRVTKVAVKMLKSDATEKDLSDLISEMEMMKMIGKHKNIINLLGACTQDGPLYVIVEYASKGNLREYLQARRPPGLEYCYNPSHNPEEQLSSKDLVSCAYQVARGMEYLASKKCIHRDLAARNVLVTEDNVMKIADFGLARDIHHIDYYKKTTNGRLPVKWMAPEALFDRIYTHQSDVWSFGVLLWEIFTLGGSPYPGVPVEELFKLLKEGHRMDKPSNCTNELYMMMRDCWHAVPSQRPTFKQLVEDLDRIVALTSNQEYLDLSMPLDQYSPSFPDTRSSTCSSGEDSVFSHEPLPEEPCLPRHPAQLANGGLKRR
- measurement_protocol: cell-based or functional assay
A number alone suffices; assume %.

Maximum Inhibition (%) of 10 nM mfFGF21 reading for H2aM8109N (antibody, V domains shown, mouse IgG2 Fc (H2aM prefix)) VH: QVQVVESGGGVVQPGRSLRLSCAASGFTFSSYGLHWVRQAPGKGLEWVAVIWHDGSHKYYADSVKGRFTISRDNSKNTLYLQMNSLRAEDTAVYYCARDGIPVAEDYYFYGMDVWGQGTTVTVSS VL: DIQMTQSPSSLSASVGDRVTITCRASQGIRNDLGWYQQKPGKAPKRLIYAASSLQSGVPSRFSGSGSGTEFTLTISSLQPEDFAIYYCLQHNSLTFGGGTKVEIK : 32

Sure, the documented Maximum Inhibition (%) of 10 nM mfFGF21 for H2aM8832N (antibody, V domains shown, mouse IgG2 Fc (H2aM prefix)) VH: QVQLVESGGGVVQPGRSLRLSCAASGFTFSRYGMHWVRQAPGKGLEWVAVIWYDGTNKYYEDSLKGRFTISRDNSKNTLYLQMNSLRAEDSAVYYCARDQGKYIDYWGQGTLVTVSS VL: AIQMTQSPSSLSASVGDRVTITCRTSQDIRNDLGWYQQKPGKVPNLLIYAASTLQSGVPSRFSGSGSGTDFTLTISSLQPEDFATYYCLQDYNYPFTFGPGTKVDIK is 15

Short answer for H4H8881P (antibody, V domains shown, human IgG4 Fc (H4H prefix)) VH: QVQLVQSGAEVKKPGASVKVSCKASGYTFTSYVIHWVRQAPGQRLEWMGWSNAANGDTKYSQEFQDRVTFTRDTSASTAYMELSSLRSEDMAVYYCARWNWNYGAFDIWGQGTMVTVSS VL: DIQMTQSPSSLSASVGDRVTITCQASQDINNYLHWYQQKSGKAPNLLIYDASILETGVPSRFSGSGSGTDFTFTISSLQPEDIATYYCQQYDNLPYTFGQGTKLEIK : Maximum Inhibition (%) of 10 nM mfFGF21 was 77

The measured Maximum Inhibition (%) of 10 nM mfFGF21 associated with H2aM8092N (antibody, V domains shown, mouse IgG2 Fc (H2aM prefix); also called H2M8092N) VH: QVQLQESGPGLVKPSETLSLTCTVSGGSISSYYWSWIRQPPGKGLDWIGHIYYSGTTYYNPSLKSRVSISLDTSKNQFSLKLSSVTAADTAVYYCARHLRGYSSGREFDYWGQGTLVTVSS VL: DIQMTQSPSSLSASVGGRVSLTCRASQSIFSYLNWYQQKPGKAPKLLIYAASNLQSGVPSRFSGSGSGTDFTLTISSLQPEDFATYSCQQSYNIPYTFGQGTKLEIK reads 18

--- query ---
# binder H4H8852P (antibody, V domains shown, human IgG4 Fc (H4H prefix)) VH: QVQLQESGPGLVKPSETLSLTCTVSGGSISSYYWSWIRQPPGKGLEWIGYIYSSGIIKYNPSLKSRVTISADTSKNQFSLKLSSVTAADTAVYYCARHGIFGVMEYFQRWGQGTLVTVSS VL: DIQMTQSPSSLSASIGDRVTITCQASQDIGNFLNWYQQKPGKAPTLLIYDASNMETGVPSRFSGSGSGTYFTFTISSLQPEDVATYYCQQYDNLPLTFGGGTKVEIK ; its Maximum Inhibition (%) of 10 nM mfFGF21 = 101
